Value source: patent US8278337B2

target: UniProt:P45983; assay: DELFIA kinase assay, JNK1; assay type: biochemical; details: DELFIA, biotinylated GST-ATF2 substrate, 10 minute pre-incubation, final ATP 7 uM
pIC50: −log10 of the molar value.
Here, each record is paired with measured pIC50 data.

Use the examples below as a reference point.
CC(C)NC(=O)c1cccc(C(=O)NCc2nc3ccccc3[nH]2)n1 : 6.02 to 6.99
CCOC(=O)N1CCC(NC(=O)c2cccc(Nc3ccc(N4CCOCC4)cc3)n2)CC1 : < 6.00
CC(C)NC(=O)c1cccc(C(=O)NCc2ccc(-n3cccn3)cc2)n1 : 6.02 to 6.99
CCOC(=O)N1CCC(NC(=O)c2cccc(C(=O)N(C)C)n2)CC1 : < 6.00

# pIC50 of O=C(NCc1cnn(-c2ccccc2)c1)c1cccc(-n2cc(I)cn2)n1 = 6.02 to 6.99

Note to self: pIC50 recorded for CC(=O)Nc1cccc(C(=O)NCc2cnn(-c3cccc(C(F)(F)F)c3)c2)n1 was 6.02 to 6.99

So, CC(C)NC(=O)c1cccc(C(=O)NCc2ccc3nc(NCCN4CCOCC4)sc3c2)n1 ? Its pIC50 was 7.01 to 8.40

Entry under test: COc1cccc(C(=O)NCc2ccc3nc(N)sc3c2)n1 . Its pIC50 was < 6.00

Measured pIC50 of CC(C)NC(=O)c1cccc(C(=O)NCc2cnn(-c3cnc4[nH]cnc4c3)c2)n1 : 7.01 to 8.40

---

Target: JNK1 (Homo sapiens)
Sequence (P45983 whole entry, species assumed): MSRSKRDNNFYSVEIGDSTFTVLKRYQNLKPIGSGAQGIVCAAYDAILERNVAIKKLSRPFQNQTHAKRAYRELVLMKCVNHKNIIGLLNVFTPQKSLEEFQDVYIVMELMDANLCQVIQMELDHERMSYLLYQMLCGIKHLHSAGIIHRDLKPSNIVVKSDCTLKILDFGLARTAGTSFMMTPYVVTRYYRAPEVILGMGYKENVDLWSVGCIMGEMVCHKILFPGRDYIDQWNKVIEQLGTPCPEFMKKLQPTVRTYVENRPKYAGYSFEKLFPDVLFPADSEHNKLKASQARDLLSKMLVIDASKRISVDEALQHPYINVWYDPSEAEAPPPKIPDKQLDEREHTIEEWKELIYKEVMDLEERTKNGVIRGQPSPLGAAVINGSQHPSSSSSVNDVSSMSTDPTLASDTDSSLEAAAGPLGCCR
Experiment: DELFIA kinase assay, JNK1
Type: biochemical
Settings: DELFIA assay, 2 nM JNK1, 7 uM ATP, 10 min pre-incubation
Experimental: Assay DELFIA (Dissociation Enhanced Lanthanide Fluorescence Immuno-Assay) Assay: Before initiation of kinase reactions, compounds were pre-incubated with the enzyme for 10 minutes. […] The amount of phosphate transferred to biotinylated GST-ATF2 was measured using the Dissociation Enhanced Lanthanide Fluorescence Immuno-assay (DELFIA) from Perkin Elmer according to manufacturers protocol. […]
IC50 listing for selected molecules.
Hi! Could you send only the number? It should be in nM, unit omitted.

CC(C)NC(=O)c1cccc(C(=O)NCc2cnn(-c3ccc(S(=O)(=O)N4CCNCC4)c(Cl)c3)c2)n1 : 7

Here Cc1ccc2cc(-n3cc(CNC(=O)c4cccc(C(=O)NC(C)C)n4)cn3)ccc2n1 was tested on JNK1 (Homo sapiens), and its IC50 came to 14

Reported IC50 (JNK1 (Homo sapiens)) for entry CC(C)NC(=O)c1cccc(C(=O)NCc2cnn(-c3ccc(S(C)(=O)=O)cc3)c2)n1 is 13

Record for CC(C)NC(=O)c1cccc(C(=O)NCc2cnn(-c3cccc(C#N)c3)c2)n1 under target or system JNK1 (Homo sapiens): IC50 reported as 15

Reported JNK1 (Homo sapiens) IC50 for item CC(C)NC(=O)c1cccc(C(=O)NCc2cnn(-c3ccc(S(=O)(=O)N(C)C)c(Cl)c3)c2)n1 was 4

Result for CC(C)NC(=O)c1cccc(C(=O)NCc2cnn(-c3cnc4cccnc4c3)c2)n1 , tested on JNK1 (Homo sapiens), IC50: 18

// molecule Cc1nc2ccc(-n3cc(CNC(=O)c4cccc(C(=O)NC(C)C)n4)cn3)cc2n1C(C)C , assay JNK1 (Homo sapiens), IC50 value: 8

Case Cc1nc2ccc(-n3cc(CNC(=O)c4cccc(C(=O)NC(C)C)n4)cn3)cc2n1C , JNK1 (Homo sapiens), IC50 recorded as 17

---

molecular target: JNK1 (Homo sapiens); experiment: DELFIA kinase assay, JNK1; type: biochemical; settings: DELFIA assay, 2 nM JNK1, 7 uM ATP, 10 min pre-incubation; second table; read-out: JNK 1 IC50
Assay Readout: IC50 (nM)
Numeric answer only, unit nM assumed.

Example results:
CC(C)NC(=O)c1cccc(C(=O)NCc2cnn(-c3cnc4ccccc4c3)c2)n1 [Compound 144] : 7
Cc1nc2ccc(-n3cc(CNC(=O)c4cccc(C(=O)NC(C)C)n4)cn3)cc2n1C [Compound 233] : 17
CC(C)NC(=O)c1cccc(C(=O)NCc2cnn(-c3ccc(S(=O)(=O)N(C)C)c(Cl)c3)c2)n1 [Compound 246] : 4
Cc1nc2ccc(-n3cc(CNC(=O)c4cccc(C(=O)NC(C)C)n4)cn3)cc2n1C(C)C [Compound 228] : 8
CC(C)NC(=O)c1cccc(C(=O)NCc2cnn(-c3ccc(S(N)(=O)=O)cc3)c2)n1 [Compound 241] : 7
Cc1ccc2cc(-n3cc(CNC(=O)c4cccc(C(=O)NC(C)C)n4)cn3)ccc2n1 [Compound 149] : 14

Now look at this entry.
The measured IC50 associated with CC(C)NC(=O)c1cccc(C(=O)NCc2cnn(-c3ccc(S(=O)(=O)N4CCNCC4)c(Cl)c3)c2)n1 [Compound 248] reads 7

---

Here the recorded IC50 is given for each entry.
target: JNK1 (Homo sapiens); assay: DELFIA kinase assay, JNK1; format: biochemical; settings: DELFIA, biotinylated GST-ATF2 substrate, 10 minute pre-incubation, final ATP 7 uM

Example entries begin here.
CS(=O)(=O)c1ccc(CNC(=O)c2cccc(-n3cc(I)cn3)n2)cc1 [Compound 318] : 102 to 959 nM
CC(C)NC(=O)c1cccc(C(=O)NCc2cccnc2)n1 [Compound 93] : 102 to 959 nM
CC(C)NC(=O)c1cc(O)cc(C(=O)NCc2cnn(-c3ccc4nccnc4c3)c2)n1 [Compound 436] : 4 to 97 nM

Please fill in: IC50 reported for CC(C)NC(=O)c1cccc(C(=O)NCc2cncc(-c3ccc(S(C)(=O)=O)cc3)c2)n1 [Compound 255] = 4 to 97 nM

Measured IC50, CCOC(=O)N1CCC(NC(=O)c2cccc(Nc3ccccn3)n2)CC1 [Compound 396] : > 1000 nM

---

Property: IC50; scope: individual compounds
molecular target: JNK2 (Homo sapiens, UniProt P45984); experiment: DELFIA kinase assay, JNK2; type: biochemical; conditions: DELFIA assay
Sequence (P45984 whole entry, species assumed): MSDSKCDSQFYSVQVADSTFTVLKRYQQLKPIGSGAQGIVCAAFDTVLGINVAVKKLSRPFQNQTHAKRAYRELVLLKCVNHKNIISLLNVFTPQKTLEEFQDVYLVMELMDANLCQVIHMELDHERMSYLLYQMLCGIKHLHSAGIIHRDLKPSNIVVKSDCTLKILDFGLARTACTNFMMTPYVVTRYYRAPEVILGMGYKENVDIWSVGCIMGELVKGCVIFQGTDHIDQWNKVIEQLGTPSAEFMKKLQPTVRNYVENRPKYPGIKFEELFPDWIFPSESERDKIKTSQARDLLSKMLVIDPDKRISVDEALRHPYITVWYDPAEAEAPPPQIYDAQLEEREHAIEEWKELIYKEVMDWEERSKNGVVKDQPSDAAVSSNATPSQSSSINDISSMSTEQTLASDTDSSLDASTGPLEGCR
Note: state the figure and append the unit.

Known IC50 results, listed for orientation:
CC(C)NC(=O)c1cccc(C(=O)NCc2cnn(-c3cccc(C#N)c3)c2)n1 : 20 nM
CC(C)NC(=O)c1cccc(C(=O)NCc2cnn(-c3cnc4cccnc4c3)c2)n1 : 8 nM
CC(C)NC(=O)c1cccc(C(=O)NCc2cnn(-c3ccc(S(C)(=O)=O)cc3)c2)n1 : 3 nM

Looking up Cc1nc2ccc(-n3cc(CNC(=O)c4cccc(C(=O)NC(C)C)n4)cn3)cc2n1C , I see its IC50 listed as 11 nM

---

molecular target: JNK1 (Homo sapiens); test: DELFIA kinase assay, JNK1; format: biochemical; details: DELFIA, biotinylated GST-ATF2 substrate, 10 minute pre-incubation, final ATP 7 uM
Assay Readout: IC50

Worked set:
Nc1nc2ccc(CNC(=O)c3cccc(C(=O)N[C@H]4CC[C@H](O)CC4)n3)cc2s1 : 102 to 959 nM
CSc1nccc(N2CCC(NC(=O)c3cccc(C(=O)NCc4ccc(S(C)(=O)=O)cc4)n3)CC2)n1 : > 1000 nM
CS(=O)(=O)c1ccc(-n2cc(CNC(=O)c3cccc(-n4cc(-c5ccc(F)cc5)cn4)n3)cn2)cc1 : 102 to 959 nM
CCOC(=O)N1CCC(NC(=O)c2cccc(Nc3cccnc3)n2)CC1 : > 1000 nM
CC(C)NC(=O)c1cccc(C(=O)NCc2ccc(-c3cccc(Cl)c3)nc2)n1 : 102 to 959 nM

Entry CNc1cccc(C(=O)NCc2cnn(-c3cccc(C(F)(F)F)c3)c2)n1 under JNK1 (Homo sapiens) had IC50 of 102 to 959 nM

The recorded IC50 with JNK1 (Homo sapiens) for CCOC(=O)Nc1nc2ccc(CNC(=O)c3cccc(C(=O)NC(C)C)n3)cc2s1 was 4 to 97 nM

---

target: JNK1 (Homo sapiens); test: DELFIA kinase assay, JNK1; format: biochemical; details: DELFIA, biotinylated GST-ATF2 substrate, 10 minute pre-incubation, final ATP 7 uM
Assay Readout: IC50

# example entries with known answers
O=C(NCc1cnn(-c2cccc(C(F)(F)F)c2)c1)c1cccc(N2Cc3ccccc3C2)n1 : > 1000 nM
CN(C)C(=O)c1cccc(C(=O)NCc2ccc3nc(N)sc3c2)n1 : > 1000 nM

Data point: CC(C)NC(=O)c1cccc(C(=O)NCc2cnn(-c3cncc(C#N)c3)c2)n1 ; IC50 = 4 to 97 nM

The measured IC50 associated with C[C@@H](CNC(=O)c1cccc(C(=O)NCc2ccc3nc(N)sc3c2)n1)c1ccccc1 reads 102 to 959 nM

For record CS(=O)(=O)c1ccc(CNC(=O)c2cccc(-n3cc(-c4cnccn4)cn3)n2)cc1 the listed IC50 is 102 to 959 nM

Record CCOC(=O)N1CCC(NC(=O)c2cccc(C(=O)NCc3ccc(OC)c(OC)c3)n2)CC1 . Reported IC50: 102 to 959 nM

Recorded IC50 (compound CCOC(=O)N1CCC(NC(=O)c2cccc(C(=O)NCc3ccc(S(C)(=O)=O)cc3)c2)CC1 ): > 1000 nM

Lab note: measured IC50 of CC(C)NC(=O)c1cccc(C(=O)NCc2cnn(-c3cccc(F)c3)c2)n1 was 4 to 97 nM
